Recorded values, source ChEMBL document CHEMBL5291721.

- measurement.target: Voltage-gated inwardly rectifying potassium channel KCNH2 (Homo sapiens, UniProt Q12809); note: assay procedure not described here
- Sequence (Q12809 whole entry): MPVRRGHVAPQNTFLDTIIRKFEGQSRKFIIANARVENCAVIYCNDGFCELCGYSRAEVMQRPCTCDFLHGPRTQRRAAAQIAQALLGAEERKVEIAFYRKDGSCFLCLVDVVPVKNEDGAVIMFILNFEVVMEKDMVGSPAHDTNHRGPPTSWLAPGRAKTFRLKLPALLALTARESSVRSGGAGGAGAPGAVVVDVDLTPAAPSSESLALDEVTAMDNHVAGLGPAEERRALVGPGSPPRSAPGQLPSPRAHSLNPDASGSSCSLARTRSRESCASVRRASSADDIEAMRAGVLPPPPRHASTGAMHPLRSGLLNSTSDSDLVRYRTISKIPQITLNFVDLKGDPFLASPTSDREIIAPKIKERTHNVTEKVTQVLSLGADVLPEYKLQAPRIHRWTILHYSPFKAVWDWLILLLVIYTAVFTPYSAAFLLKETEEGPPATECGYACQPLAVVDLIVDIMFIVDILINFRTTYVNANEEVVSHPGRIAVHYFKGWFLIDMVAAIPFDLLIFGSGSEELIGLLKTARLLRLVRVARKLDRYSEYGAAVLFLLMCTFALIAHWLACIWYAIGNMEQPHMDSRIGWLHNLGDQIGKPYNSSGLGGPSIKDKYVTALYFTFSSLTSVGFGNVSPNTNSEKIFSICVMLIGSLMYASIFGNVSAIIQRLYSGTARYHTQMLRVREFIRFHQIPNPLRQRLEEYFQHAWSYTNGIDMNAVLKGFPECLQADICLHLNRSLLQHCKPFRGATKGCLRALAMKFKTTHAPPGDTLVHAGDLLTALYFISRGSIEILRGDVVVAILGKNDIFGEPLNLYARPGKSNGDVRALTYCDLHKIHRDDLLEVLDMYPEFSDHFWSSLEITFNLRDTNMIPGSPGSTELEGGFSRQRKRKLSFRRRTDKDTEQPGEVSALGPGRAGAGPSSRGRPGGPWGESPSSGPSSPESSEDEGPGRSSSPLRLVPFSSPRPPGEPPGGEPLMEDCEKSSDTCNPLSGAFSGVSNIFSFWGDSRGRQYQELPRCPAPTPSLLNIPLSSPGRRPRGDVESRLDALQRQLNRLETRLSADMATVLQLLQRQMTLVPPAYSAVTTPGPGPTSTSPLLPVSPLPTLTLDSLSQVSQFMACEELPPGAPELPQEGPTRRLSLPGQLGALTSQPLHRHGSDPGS
- Format: functional
Please note: AC50 exactly at 4 µM is not fulfilled. Only values below 4 µM get fulfilled.

For orientation, consider the following solved cases.
Oc1ccc(CCNCCCCCCNCCc2ccccc2)cc1O [DOPEXAMINE] : fulfilled
C[N+]12CCC(CC1)C(OC(=O)C(O)(c1ccccc1)c1ccccc1)C2 (centres undefined) : fulfilled
C=CCN1CCc2nc(N)sc2CC1 [TALIPEXOLE] : not fulfilled
OC[C@H]1O[C@@H](n2cnc3c2NC=NC[C@H]3O)C[C@@H]1O [PENTOSTATIN] : not fulfilled
CC(C)C[C@H](NC(=O)[C@@H](O)[C@H](N)Cc1ccccc1)C(=O)O [UBENIMEX] : not fulfilled

Answer whether the compound CC[C@@H]1C[C@]1(NC(=O)[C@@H]1C[C@@H]2CN1C(=O)[C@H](C(C)(C)C)NC(=O)OCC(C)(C)CCCCc1cccc3c1CN(C3)C(=O)O2)C(=O)NS(=O)(=O)C1CC1 has AC50 strictly less than 4 µM
not fulfilled

Next entry: CCN1CCCC1CNC(=O)c1cc(S(=O)(=O)CC)ccc1OC (centres undefined) [SULTOPRIDE]
fulfilled

###

Item-by-item account of AC50
- measurement.target: Muscarinic acetylcholine receptor M1 (Homo sapiens, UniProt P11229); note: assay procedure not described here
- Sequence (P11229 whole entry): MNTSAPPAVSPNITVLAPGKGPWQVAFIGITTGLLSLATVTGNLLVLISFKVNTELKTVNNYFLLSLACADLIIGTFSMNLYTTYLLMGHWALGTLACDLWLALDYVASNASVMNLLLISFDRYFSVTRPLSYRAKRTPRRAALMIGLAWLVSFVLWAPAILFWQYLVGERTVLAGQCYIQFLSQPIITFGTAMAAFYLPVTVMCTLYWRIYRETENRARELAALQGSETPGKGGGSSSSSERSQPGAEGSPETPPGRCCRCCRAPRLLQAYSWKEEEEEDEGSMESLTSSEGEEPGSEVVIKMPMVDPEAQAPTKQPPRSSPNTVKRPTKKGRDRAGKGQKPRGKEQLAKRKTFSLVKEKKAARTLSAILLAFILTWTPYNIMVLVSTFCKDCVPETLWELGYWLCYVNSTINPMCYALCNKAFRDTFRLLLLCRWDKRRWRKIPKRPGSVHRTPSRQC
- Type: functional

O=C(/C=C/c1cccc(S(=O)(=O)Nc2ccccc2)c1)NO [BELINOSTAT] : > 10 µM

Form field: reported AC50 of O=C1OC(OC(=O)c2cccnc2Nc2cccc(C(F)(F)F)c2)c2ccccc21 (stereo unspecified) [TALNIFLUMATE]
> 30 µM

Next entry: CC(C)[C@@H](C)/C=C/[C@@H](C)[C@H]1CC[C@H]2/C(=C/C=C3\C[C@@H](O)CC[C@@H]3C)CCC[C@]12C [DIHYDROTACHYSTEROL]
> 10 µM

Next entry: C[N+]1(C)CCC(=C(c2ccccc2)c2ccccc2)CC1
0.41 µM

###

- measurement.target: UniProt P08913
- Sequence (P08913 whole entry): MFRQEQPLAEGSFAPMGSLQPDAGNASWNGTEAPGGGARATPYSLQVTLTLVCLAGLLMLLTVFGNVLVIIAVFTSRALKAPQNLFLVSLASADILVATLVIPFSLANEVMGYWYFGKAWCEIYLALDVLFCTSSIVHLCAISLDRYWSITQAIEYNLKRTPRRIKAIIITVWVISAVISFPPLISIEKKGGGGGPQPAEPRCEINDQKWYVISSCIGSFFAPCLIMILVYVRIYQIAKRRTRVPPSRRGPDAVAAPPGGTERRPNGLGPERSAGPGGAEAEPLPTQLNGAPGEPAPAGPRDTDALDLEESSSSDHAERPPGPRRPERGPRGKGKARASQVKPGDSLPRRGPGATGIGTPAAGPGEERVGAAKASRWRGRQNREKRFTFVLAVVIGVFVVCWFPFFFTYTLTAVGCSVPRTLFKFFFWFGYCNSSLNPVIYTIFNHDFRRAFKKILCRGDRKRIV
- Assay type: functional, cell-based
measurement.type: AC50

S=P(N1CC1)(N1CC1)N1CC1 [THIOTEPA] : 14 µM
CC(c1cc2ccccc2s1)N(O)C(N)=O (stereo not drawn) [ZILEUTON] : > 10 µM

Form field: reported AC50 of O=c1[nH]c2ccccc2n1CCCN1CCN(C(c2ccccc2)c2ccccc2)CC1 [OXATOMIDE]
> 30 µM

###

- measurement.target: Adenosine receptor A2a (Homo sapiens, UniProt P29274); note: assay procedure not described here
- Sequence (P29274 whole entry): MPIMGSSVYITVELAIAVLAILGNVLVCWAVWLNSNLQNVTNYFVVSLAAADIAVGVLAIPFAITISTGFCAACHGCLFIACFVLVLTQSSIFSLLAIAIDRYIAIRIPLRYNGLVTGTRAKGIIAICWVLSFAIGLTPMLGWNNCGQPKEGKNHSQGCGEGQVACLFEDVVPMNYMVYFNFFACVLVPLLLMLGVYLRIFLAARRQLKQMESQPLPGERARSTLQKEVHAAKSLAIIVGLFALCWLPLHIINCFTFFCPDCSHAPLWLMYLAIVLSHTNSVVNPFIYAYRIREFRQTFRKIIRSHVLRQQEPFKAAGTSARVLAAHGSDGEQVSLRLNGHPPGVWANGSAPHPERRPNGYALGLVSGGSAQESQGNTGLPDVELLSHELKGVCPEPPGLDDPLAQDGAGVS
measurement.type: AC50

# count of solved cases: 2
Oc1ccc(CCNCCCCCCNCCc2ccccc2)cc1O : > 30 µM
COc1cc(C(=O)NS(=O)(=O)c2ccccc2C)ccc1Cc1cn(C)c2ccc(NC(=O)OC3CCCC3)cc12 : > 30 µM

Now consider the entry below.
Form field: reported AC50 of O=C(O)Cc1ccccc1Nc1c(Cl)cccc1Cl
> 30 µM

###

Item-by-item account of AC50
- measurement.target: UniProt P41145
- Sequence (P41145 whole entry): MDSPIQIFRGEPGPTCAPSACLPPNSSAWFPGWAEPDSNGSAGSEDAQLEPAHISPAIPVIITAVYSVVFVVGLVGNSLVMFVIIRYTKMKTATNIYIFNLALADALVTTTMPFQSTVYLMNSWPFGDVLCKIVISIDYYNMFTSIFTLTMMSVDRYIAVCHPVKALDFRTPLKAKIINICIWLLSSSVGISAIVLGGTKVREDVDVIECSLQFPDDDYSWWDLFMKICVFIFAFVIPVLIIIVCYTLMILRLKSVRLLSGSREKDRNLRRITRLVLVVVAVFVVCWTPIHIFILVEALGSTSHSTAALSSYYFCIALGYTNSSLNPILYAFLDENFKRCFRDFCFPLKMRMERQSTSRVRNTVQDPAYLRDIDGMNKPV

# count of solved cases: 5
O=c1[nH]c2ccccc2n1CCCN1CCN(C(c2ccccc2)c2ccccc2)CC1 [OXATOMIDE] : 13 µM
COc1cc(C(=O)OCc2cccc(COC(=O)c3cc(OC)c(OC)c(OC)c3)n2)cc(OC)c1OC : > 30 µM
COc1ccc(CN2CCN(C(c3ccc(F)cc3)c3ccc(F)cc3)CC2)c(OC)c1OC : 12 µM
COc1cc2[nH]c(C)c(CCN3CCN(c4ccccc4)CC3)c2cc1OC : > 30 µM
Cc1cc(C)nc(NS(=O)(=O)c2ccc(N)cc2)n1 : > 10 µM

Form field: reported AC50 of CN1Cc2c(N)cccc2C(c2ccccc2)C1 (stereo not given)
> 30 µM

Next entry: O=C(O)c1ccc(NC(=O)[C@H](Cc2ccc(O)cc2)NC(=O)c2ccccc2)cc1 [BENTIROMIDE]
> 10 µM

Next entry: CC(C)NC(=N)NC(=N)Nc1ccc(Cl)c(Cl)c1
> 30 µM

Next entry: O=C(O)CCNC(=O)c1ccc(/N=N/c2ccc(O)c(C(=O)O)c2)cc1 [BALSALAZIDE]
> 30 µM

Next entry: Clc1ccc(CCC(Cn2ccnc2)Sc2c(Cl)cccc2Cl)cc1 (stereo not given)
1.8 µM

###

Item-by-item account of AC50
- measurement.target: Estrogen receptor (Homo sapiens, UniProt P03372); note: assay procedure not described here
- Sequence (P03372 whole entry): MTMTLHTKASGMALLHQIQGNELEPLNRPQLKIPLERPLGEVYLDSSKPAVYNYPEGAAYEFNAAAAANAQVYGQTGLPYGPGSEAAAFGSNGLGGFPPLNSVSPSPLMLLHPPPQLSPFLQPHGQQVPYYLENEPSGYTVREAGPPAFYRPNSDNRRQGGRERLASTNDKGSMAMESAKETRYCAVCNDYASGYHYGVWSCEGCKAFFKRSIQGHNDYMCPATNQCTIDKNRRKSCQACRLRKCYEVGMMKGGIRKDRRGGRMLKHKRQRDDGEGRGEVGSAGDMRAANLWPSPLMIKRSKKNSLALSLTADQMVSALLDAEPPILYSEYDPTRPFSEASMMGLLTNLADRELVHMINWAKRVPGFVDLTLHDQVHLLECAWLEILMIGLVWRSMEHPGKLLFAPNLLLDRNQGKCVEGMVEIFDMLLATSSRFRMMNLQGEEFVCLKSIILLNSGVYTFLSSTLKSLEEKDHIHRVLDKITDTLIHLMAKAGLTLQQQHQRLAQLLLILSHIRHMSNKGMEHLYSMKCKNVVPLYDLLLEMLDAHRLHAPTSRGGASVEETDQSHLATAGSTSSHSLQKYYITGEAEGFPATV

CNCCc1ccc(OC(=O)C(C)C)c(OC(=O)C(C)C)c1 : > 30 µM
Cn1cc(C(=O)[C@@H]2CCc3nc[nH]c3C2)c2ccccc21 : > 30 µM
OC[C@H]1O[C@@H](Oc2cc(O)cc(/C=C/c3ccc(O)cc3)c2)[C@H](O)[C@@H](O)[C@@H]1O : > 30 µM
CC=CC1=C(C(=O)O)N2C(=O)[C@@H](NC(=O)[C@H](N)c3ccc(O)cc3)[C@H]2SC1 : > 30 µM
Cn1c(=O)c2c(ncn2CCOC(=O)C(C)(C)Oc2ccc(Cl)cc2)n(C)c1=O [THEOFIBRATE] : > 30 µM
Cc1nnc(SCC2=C(C(=O)O)N3C(=O)[C@@H](NC(=O)Cn4cnnn4)[C@H]3SC2)s1 : > 30 µM

Form field: reported AC50 of CC(C)[C@H](N)C(=O)OCCOCn1cnc2c(=O)[nH]c(N)nc21
> 30 µM

Next entry: Cc1cc(=O)n(-c2ccccc2)n1C [ANTIPYRINE]
> 30 µM

Next entry: CC[C@H](C)C(=O)O[C@H]1C[C@@H](C)C=C2C=C[C@H](C)[C@H](CC[C@@H]3C[C@@H](O)CC(=O)O3)[C@H]21
> 30 µM

Next entry: Fc1ccc([C@@H]2CCNC[C@H]2COc2ccc3c(c2)OCO3)cc1
> 30 µM

Next entry: O=C(O)c1cccnc1Nc1cccc(C(F)(F)F)c1
> 10 µM

Next entry: CC(=O)Nc1ccc(CC(=O)O)cc1
> 30 µM

Next entry: CCC[C@@H]1C[C@@H](C(=O)N[C@@H]([C@H]2O[C@H](SC)[C@H](O)[C@@H](O)[C@H]2O)[C@@H](C)O)N(C)C1
> 10 µM

Next entry: CC(C)NC[C@H](O)COc1ccc(CC(N)=O)cc1
> 30 µM

Next entry: NC(=O)NC(=O)Cc1ccccc1 [PHENACEMIDE]
> 10 µM

Next entry: CC(C)(O/N=C(\C(=O)N[C@@H]1C(=O)N2C(C(=O)[O-])=C(C[n+]3ccccc3)CS[C@H]12)c1csc(N)n1)C(=O)O
> 30 µM

Next entry: CC(C)N(CCCCOCC(=O)O)c1cnc(-c2ccccc2)c(-c2ccccc2)n1
> 30 µM

Next entry: CC(C)C[C@H](NC(=O)[C@@H](O)[C@H](N)Cc1ccccc1)C(=O)O
> 30 µM

Next entry: O=C(O)Cc1ccccc1Oc1ccc(Cl)cc1Cl
> 30 µM

Next entry: C[C@]12C/C(=C/O)C(=O)C[C@@H]1CC[C@@H]1[C@@H]2CC[C@@]2(C)[C@H]1CC[C@]2(C)O
> 30 µM

Next entry: COc1ccc([C@@H]2CC(=O)c3c(O)cc(O)cc3O2)cc1O
> 10 µM

Next entry: NS(=O)(=O)c1cc2c(cc1Cl)N=C(CSCc1ccccc1)NS2(=O)=O [BENZTHIAZIDE]
> 30 µM
